# target-system: ATM (Homo sapiens, UniProt Q13315)
# Construct: endogenous in cells
# Sequence (Q13315 whole entry): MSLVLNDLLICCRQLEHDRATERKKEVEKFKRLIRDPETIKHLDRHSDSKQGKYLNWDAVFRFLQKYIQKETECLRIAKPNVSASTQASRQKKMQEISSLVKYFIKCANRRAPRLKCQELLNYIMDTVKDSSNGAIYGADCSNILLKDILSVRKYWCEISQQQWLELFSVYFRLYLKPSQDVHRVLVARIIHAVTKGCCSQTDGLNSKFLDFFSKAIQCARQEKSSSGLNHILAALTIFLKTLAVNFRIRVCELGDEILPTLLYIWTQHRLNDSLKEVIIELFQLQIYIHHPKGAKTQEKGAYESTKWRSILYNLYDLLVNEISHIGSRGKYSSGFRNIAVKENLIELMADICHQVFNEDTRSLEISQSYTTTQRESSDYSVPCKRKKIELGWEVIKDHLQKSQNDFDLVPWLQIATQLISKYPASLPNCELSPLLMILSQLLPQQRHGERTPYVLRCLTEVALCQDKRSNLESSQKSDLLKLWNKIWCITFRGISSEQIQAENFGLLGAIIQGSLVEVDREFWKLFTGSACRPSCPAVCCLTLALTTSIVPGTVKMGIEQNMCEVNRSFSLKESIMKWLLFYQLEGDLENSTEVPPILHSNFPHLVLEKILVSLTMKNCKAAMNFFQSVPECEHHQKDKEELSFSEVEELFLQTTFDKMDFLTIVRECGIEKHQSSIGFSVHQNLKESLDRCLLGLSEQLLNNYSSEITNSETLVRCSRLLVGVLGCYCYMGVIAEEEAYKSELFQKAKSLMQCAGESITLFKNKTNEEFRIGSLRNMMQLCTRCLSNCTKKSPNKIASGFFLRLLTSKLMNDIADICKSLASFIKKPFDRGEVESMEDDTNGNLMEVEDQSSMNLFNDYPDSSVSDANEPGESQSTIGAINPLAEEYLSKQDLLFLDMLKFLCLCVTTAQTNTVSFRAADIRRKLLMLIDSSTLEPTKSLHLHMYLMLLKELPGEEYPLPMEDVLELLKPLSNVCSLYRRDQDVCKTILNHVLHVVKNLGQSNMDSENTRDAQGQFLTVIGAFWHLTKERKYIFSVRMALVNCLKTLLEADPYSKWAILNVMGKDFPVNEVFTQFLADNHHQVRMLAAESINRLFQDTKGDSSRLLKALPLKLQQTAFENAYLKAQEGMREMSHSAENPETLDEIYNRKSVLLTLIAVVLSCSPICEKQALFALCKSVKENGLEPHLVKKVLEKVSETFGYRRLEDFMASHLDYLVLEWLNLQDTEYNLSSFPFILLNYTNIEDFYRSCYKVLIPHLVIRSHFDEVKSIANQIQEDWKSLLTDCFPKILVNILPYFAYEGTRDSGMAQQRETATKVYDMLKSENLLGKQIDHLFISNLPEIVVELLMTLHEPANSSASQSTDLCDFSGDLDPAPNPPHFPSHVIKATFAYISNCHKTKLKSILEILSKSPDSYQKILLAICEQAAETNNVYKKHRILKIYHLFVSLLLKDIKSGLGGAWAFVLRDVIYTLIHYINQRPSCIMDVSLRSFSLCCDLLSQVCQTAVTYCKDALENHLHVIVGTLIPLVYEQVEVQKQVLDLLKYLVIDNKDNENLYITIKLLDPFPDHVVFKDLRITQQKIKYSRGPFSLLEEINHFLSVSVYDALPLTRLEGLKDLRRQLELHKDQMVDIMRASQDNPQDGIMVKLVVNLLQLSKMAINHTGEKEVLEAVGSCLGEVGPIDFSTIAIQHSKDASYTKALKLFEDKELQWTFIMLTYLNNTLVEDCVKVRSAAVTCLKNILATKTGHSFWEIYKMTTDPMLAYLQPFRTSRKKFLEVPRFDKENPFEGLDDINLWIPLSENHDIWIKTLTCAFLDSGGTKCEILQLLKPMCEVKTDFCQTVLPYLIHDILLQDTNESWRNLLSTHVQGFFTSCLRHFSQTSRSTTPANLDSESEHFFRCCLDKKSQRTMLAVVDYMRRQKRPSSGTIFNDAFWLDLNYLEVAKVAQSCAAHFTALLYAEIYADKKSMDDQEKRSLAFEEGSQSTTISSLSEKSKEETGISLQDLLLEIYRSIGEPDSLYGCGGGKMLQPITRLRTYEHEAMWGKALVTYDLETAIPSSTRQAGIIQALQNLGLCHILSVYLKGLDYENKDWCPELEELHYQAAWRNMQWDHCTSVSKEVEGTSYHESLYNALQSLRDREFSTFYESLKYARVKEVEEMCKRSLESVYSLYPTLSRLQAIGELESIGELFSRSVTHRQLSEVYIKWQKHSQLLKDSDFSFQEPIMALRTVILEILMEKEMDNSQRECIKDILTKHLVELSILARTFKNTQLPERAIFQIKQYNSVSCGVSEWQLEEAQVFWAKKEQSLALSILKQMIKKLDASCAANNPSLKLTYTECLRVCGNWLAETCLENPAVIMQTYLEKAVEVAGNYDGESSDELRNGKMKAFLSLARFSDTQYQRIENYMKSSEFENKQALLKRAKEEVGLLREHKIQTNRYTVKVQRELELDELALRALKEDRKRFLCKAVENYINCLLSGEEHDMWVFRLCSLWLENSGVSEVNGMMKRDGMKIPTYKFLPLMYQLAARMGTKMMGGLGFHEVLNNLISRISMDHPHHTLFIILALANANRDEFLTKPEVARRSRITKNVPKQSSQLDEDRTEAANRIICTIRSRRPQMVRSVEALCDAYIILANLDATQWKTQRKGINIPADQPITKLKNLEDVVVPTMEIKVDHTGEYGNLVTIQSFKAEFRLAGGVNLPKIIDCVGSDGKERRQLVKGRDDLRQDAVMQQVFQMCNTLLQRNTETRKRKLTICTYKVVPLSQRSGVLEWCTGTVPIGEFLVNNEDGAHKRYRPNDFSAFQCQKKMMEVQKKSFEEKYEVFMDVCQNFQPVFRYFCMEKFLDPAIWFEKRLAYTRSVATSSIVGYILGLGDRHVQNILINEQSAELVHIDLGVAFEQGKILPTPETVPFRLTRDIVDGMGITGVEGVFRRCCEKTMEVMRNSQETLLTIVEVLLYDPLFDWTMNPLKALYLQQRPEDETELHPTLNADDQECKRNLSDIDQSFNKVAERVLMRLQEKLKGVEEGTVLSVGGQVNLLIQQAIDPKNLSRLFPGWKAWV
# experiment-notes: Assay a): ATM cellular potency (pATM Ser1981 in irradiated HT29 cells)
# experimental-context: Table 2; HT29 cells, pATM Ser1981 after X-ray irradiation; may be geometric mean of several tests; read-out: Assay a) ATM Cell IC50
recorded-endpoint: IC50 (nM)
Output spec: scalar in nM, unitless text.

Tested system ATM (Homo sapiens, UniProt Q13315); IC50 recorded for [2H]c1c(F)c(-c2ccc(OCCCN3CCCCC3)nc2)cc2c1nc([2H])c1c2n(C(C)C)c(=O)n1C [Example 1] was 2.5

---

# target-system: ATR (Homo sapiens)
# Construct: endogenous in cells
# experiment-notes: Assay b): ATR cellular potency (pChk1 Ser345 in HT29 cells after 4NQO)
# experimental-context: Table 3 comparative data; HT29 cells, pChk1 Ser345 after 4NQO; may be geometric mean of several tests; read-out: Assay b) ATR Cell IC50
recorded-endpoint: IC50 (nM)
Output spec: scalar in nM, unitless text.

Quick note, IC50 for Cn1c(=O)n(C2CCOCC2)c2c3cc(-c4cnn(CCCO)c4)ccc3ncc21 [CN102399218A Compound 60] landed at 419
